Molecular target: T1, recombinant large extracellular loop EC2 of human CD151 (human, UniProt P48509 113-221, limits assumed)
T1 construct: also called recombinant EC2 loop; extracellular loop 2
T1 sequence (looked up): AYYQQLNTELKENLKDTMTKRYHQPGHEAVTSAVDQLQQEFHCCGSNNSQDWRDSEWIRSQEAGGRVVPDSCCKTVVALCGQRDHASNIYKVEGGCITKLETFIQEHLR
Test: cross-blocking ELISA on recombinant EC2; competitor murine 214B2

[
  {
    "binder": "humanized antibody Hz214B2VLVar2VHVar2 (G1) (antibody, human IgG1, kappa, V domains shown, also called VH Var2 with VL Var2) VH: QVQLVQSGAEVKKPGASVKVSCKASGYTFTSSSMHWVRQAPGQGLEWMGEIHPNSGNTNNAQKFQGRVTLTVDTSISTAYMELSRLRSDDTAVYYCARARSFYYAMDCWGQGTSVTVSS VL: NIQMTQSPSSLSASVGDRVTITCRASENVGTYVNWYQQKPGKAPKLLIYGASNLQSGVPSRFSGSGSATDFTLTISSLQPEDFATYYCGQTYSFPYTFGQGTKLEIKR",
    "binding result": "binds"
  },
  {
    "binder": "humanized antibody Hz214B2VLVar3VHVar2 (G1) (antibody, human IgG1, kappa, V domains shown, also called VH Var2 with VL Var3) VH: QVQLVQSGAEVKKPGASVKVSCKASGYTFTSSSMHWVRQAPGQGLEWMGEIHPNSGNTNNAQKFQGRVTLTVDTSISTAYMELSRLRSDDTAVYYCARARSFYYAMDCWGQGTSVTVSS VL: NIVMTQSPSSLSASVGDRVTITCKASENVGTYVSWYQQKPGKAPKLLIYGASNLYSGVPSRFSGSGSATDFTLTISSLQPEDFATYHCGQTYSFPYTFGQGTKLEIKR",
    "binding result": "binds"
  }
]

Origin of values: patent US20120275997A1
